Target: T1, Murine B7-H4 ECD-Flag-His10 (monomeric) (mouse, UniProt Q7TSP5 25-257)
T1 construct: extracellular domain; also called FlagHis10 murine B7-H4
T1 sequence (looked up): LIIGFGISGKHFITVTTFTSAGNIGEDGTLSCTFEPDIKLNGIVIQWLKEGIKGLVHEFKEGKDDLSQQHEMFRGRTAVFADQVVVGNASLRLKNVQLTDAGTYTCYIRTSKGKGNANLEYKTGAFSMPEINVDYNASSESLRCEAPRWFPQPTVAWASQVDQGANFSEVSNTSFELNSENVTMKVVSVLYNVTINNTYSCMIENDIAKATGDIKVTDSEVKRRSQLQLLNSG
Assay: Octet; summary table, repeats Table 9 (hIgG1-TM)
RESULT TYPE: Kd

INSERT INTO assay_data (binder, result_type, result) VALUES
  ('ZY0EPQ-E02 human IgG1-TM (antibody, V domains shown) VH: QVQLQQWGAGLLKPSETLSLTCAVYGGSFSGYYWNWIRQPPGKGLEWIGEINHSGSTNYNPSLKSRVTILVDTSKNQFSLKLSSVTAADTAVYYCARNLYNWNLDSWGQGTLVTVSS VL: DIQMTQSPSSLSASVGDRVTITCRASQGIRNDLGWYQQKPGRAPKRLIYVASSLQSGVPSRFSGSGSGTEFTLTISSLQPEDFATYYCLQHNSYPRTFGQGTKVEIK', 'Kd', '396 nM'),
  ('ZY0EQD-E02 human IgG1-TM (antibody, V domains shown) VH: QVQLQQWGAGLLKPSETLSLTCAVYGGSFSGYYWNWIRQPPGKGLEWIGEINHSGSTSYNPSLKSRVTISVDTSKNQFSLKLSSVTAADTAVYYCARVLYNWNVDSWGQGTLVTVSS VL: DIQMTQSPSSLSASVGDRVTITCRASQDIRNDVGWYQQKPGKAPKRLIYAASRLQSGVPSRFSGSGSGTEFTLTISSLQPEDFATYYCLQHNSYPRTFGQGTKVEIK', 'Kd', '621 nM'),
  ('ZY0EP0-C07 human IgG1-TM (antibody, V domains shown, also called ZY0EPO-C07) VH: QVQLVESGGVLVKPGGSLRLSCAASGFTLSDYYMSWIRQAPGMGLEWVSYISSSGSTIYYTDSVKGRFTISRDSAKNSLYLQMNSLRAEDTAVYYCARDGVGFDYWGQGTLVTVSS VL: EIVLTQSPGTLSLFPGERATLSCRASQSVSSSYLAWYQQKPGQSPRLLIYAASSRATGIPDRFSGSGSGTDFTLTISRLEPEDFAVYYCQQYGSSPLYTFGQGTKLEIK', 'Kd', '11 nM'),
  ('ZY0EOB-F05 human IgG1-TM (antibody, V domains shown) VH: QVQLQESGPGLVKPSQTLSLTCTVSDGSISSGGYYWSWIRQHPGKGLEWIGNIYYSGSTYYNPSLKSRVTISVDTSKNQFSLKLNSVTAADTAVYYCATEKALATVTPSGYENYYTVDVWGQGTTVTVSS VL: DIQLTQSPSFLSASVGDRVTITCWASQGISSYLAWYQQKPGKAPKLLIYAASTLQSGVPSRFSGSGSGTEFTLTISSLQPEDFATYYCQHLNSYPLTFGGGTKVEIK', 'Kd', '25 nM');

Ref: patent US20240239894A1
